Below, each entry is listed alongside its reported cell viability.
Tested on: SEM cells
assay-explanation: cell viability relative to DMSO control; higher = less cytotoxic
test-context: RPMI 5 mM glucose + 10% FBS; 48 h; 1.71 µM

>  <compound>
OC1=CC2=C(C=C1)C(=O)\C(=C(O2)\C3=CC(=C(O)C=C3)O)O

>  <assayed-system>
SEM cells

>  <cell viability, %>
97

$$$$
>  <compound>
O=C(CCCCCCC(=O)Nc1ccc([C@H]2O[C@@H](CSc3nc(-c4ccccc4)c(-c4ccccc4)o3)C[C@@H](c3ccc(CO)cc3)O2)cc1)NO

>  <assayed-system>
SEM cells

>  <cell viability, %>
114

$$$$
>  <compound>
O=S(=O)([O-])CCS.[Na+]

>  <assayed-system>
SEM cells

>  <cell viability, %>
124

$$$$
>  <compound>
N[S+](=O)([O-])c1cc2c(cc1Cl)NC(C(Cl)Cl)N[S+]2(=O)[O-] (stereo not drawn)

>  <assayed-system>
SEM cells

>  <cell viability, %>
123

$$$$
>  <compound>
CCN(CC)CCOc1ccc(Cc2ccccc2)cc1

>  <assayed-system>
SEM cells

>  <cell viability, %>
88.4

$$$$
>  <compound>
C[C@H](CCC(=O)O)[C@H]1CCC2C3C[C@H](O)[C@@H]4C[C@H](O)CC[C@]4(C)C3CC[C@@]21C (stereo partly drawn)

>  <assayed-system>
SEM cells

>  <cell viability, %>
117

$$$$
>  <compound>
N#Cc1ccc(Oc2ccc3c(c2)COB3O)cc1

>  <assayed-system>
SEM cells

>  <cell viability, %>
133

$$$$
>  <compound>
CCN1\C=C(\C(O)=O)C(=O)C2=C1N=C(N3CCNCC3)C(=C2)F

>  <assayed-system>
SEM cells

>  <cell viability, %>
81.9

$$$$
